tested on: Xanthomonas oryzae; assay: Antibacterial activity against Xanthomonas oryzae at 50 ug/mL incubated for 24 hrs by agar well diffusion method; type: functional; details: read-out: IZ
Starred links: 1 amine or outer side, 2 acyl side, 3 side chain; linkers in the order of their positions; H or OH if unused. Residues, ends and D or L forms follow the SMILES beside them. *: point of attachment. Thiocarbamoyl(4-MeOPh) = COc1ccc(NC(=S)*)cc1; X1 = c1ccc2c(N3CCN(*)CC3)nsc2c1; NH(4-F-phenyl) = Fc1ccc(N*)cc1; X4 = COc1cccc(NC(=S)*)c1; CO = O=C([*:1])[*:2]; X6 = Fc1cccc(N*)c1
experimentalReadout: zone of inhibition at 50 µg/mL
The reply must contain the numeric value and, after it, the unit.

The following molecules have reported results that may help.
molecule	zone of inhibition at 50 µg/mL
CC(C)[C@H](NC(=O)CNC(=O)Nc1cccc(F)c1)C(=O)NCC(=O)N[C@H](C(=O)N1CCC[C@H]1C(=O)N1CCN(c2nsc3ccccc23)CC1)C(C)C ({X6-CO}-GVGVP-X1)	22 mm
CC(C)[C@H](NC(=O)CNC(=O)Nc1ccc(F)cc1)C(=O)NCC(=O)N[C@H](C(=O)N1CCC[C@H]1C(=O)N1CCN(c2nsc3ccccc23)CC1)C(C)C ({NH(4-F-phenyl)-CO}-GVGVP-X1)	27 mm
COc1ccc(NC(=S)NCC(=O)N[C@@H](Cc2ccccc2)C(=O)NCC(=O)N[C@H](C(=O)N2CCC[C@H]2C(=O)N2CCN(c3nsc4ccccc34)CC2)C(C)C)cc1 ({Thiocarbamoyl(4-MeOPh)}-GFGVP-X1)	26 mm

Entry under test: COc1cccc(NC(=S)NCC(=O)N[C@@H](Cc2ccccc2)C(=O)NCC(=O)N[C@H](C(=O)N2CCC[C@H]2C(=O)N2CCN(c3nsc4ccccc34)CC2)C(C)C)c1 (X4-GFGVP-X1) . Its zone of inhibition at 50 µg/mL was 19 mm

Looking up CN[C@@H]1[C@H](O[C@H]2[C@H](O[C@H]3[C@H](O)[C@@H](O)[C@H](N=C(N)N)[C@@H](O)[C@@H]3N=C(N)N)O[C@@H](C)[C@]2(O)C=O)O[C@@H](CO)[C@H](O)[C@H]1O [STREPTOMYCIN] , I see its zone of inhibition at 50 µg/mL listed as 11 mm

Data origin, for the record: ChEMBL document CHEMBL3352339
